conditions: 129/SvEv, mouse, in vivo, po
readout-type: time by which steady serum levels had been achieved

CNCCC(Oc1ccc(C(F)(F)F)cc1)c1ccccc1 (stereo not shown); ≤ 5 days
CN(C)CCCN1c2ccccc2CCc2ccccc21; ≤ 5 days
CNCCCN1c2ccccc2CCc2ccccc21; ≤ 5 days
NCCC(Oc1ccc(C(F)(F)F)cc1)c1ccccc1 (stereo not shown); ≤ 5 days
